The following binders are listed with their measured pKd values.
Molecular target: T1, EsCas13d, nuclease-dead (Eubacterium siraeum, UniProt B0MS50, R295A;H300A;R849A;H854A)
T1 sequence: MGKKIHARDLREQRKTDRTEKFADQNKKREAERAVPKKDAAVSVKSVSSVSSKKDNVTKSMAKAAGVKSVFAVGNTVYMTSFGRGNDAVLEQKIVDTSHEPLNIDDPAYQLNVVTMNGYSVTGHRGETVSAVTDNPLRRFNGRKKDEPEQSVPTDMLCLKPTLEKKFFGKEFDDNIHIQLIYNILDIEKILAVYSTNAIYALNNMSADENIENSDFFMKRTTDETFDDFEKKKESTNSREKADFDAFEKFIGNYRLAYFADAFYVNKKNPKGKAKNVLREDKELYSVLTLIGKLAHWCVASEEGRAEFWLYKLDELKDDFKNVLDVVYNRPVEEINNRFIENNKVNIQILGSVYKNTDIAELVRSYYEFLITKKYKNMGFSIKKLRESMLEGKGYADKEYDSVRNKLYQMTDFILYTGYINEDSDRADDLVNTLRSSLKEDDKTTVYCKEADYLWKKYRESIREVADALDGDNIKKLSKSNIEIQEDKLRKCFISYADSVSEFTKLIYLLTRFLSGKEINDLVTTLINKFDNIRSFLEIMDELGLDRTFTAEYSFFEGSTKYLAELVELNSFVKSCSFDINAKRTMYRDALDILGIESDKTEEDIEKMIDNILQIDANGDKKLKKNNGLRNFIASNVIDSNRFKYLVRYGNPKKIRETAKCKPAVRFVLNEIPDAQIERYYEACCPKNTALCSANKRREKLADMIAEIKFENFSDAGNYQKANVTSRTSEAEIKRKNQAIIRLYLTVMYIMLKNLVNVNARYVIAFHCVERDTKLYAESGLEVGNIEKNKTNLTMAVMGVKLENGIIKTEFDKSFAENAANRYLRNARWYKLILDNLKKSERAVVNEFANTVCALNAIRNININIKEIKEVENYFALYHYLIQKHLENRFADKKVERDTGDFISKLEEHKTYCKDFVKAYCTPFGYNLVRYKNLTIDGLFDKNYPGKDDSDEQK
Experiment: crRNA (strand 1, pre-loaded); Mg2+; 40 mM Tris-HCl pH 7.5, 150 mM NaCl, 6 mM MgCl2, 1 mM DTT, 0.1% Tween-20, 0.2 mg/ml BSA; 25 C; 10 min per concentration, then washed
Conditions: tags: His6-TwinStrep-SUMO cleaved; N-terminal SNAP kept (SNAP-Surface 488); label: 3' end held by stalled T7 RNA polymerase
Worth noting: pKd values are minus log10 of concentrations stated in mol/L.

[ask] Given the binder target 3 insA 3' of 4,insA 3' of 3 (mixed) RNA 1: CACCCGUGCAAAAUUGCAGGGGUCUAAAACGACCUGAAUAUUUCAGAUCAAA RNA 2: GGGAAUGGAUCCACAUCUACGAAUUCGUUUUUGAUCUGAAAUAUUCAGAGAUCUGCAGAUCGGAAGAGCACACGU , write its reported pKd.
[reply] 7.30

[ask] Tell me pKd reported for target 1 U10C,A14G (mixed) RNA 1: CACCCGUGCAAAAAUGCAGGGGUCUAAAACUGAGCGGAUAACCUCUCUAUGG RNA 2: GGGAAUGGAUCCACAUCUACGAAUUCGUACCAUAGAGGGGUCAUCCGCUCACCGAGAUCGGAAGAGCACACGU
[reply] 7.47

[ask] Return pKd for the following binder: target 2 MT 5'PFS AUG 3'PFS AUG (mixed) RNA 1: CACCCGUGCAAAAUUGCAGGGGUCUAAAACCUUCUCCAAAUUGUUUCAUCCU RNA 2: GGGAAUGGAUCCACAUCUACGAAUUCAUGAGGAUGAAACAAUUUGGAGAAGAUGAGAUCGGAAGAGCACACGU
[reply] 8.00

Further cases:
[ask] Using known records, supply pKd for target 1 C4A,A16C (mixed) RNA 1: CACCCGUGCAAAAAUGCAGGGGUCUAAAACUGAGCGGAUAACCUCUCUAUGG RNA 2: GGGAAUGGAUCCACAUCUACGAAUUCGUACCAUAGCGAGGUUAUCCGAUCACCGAGAUCGGAAGAGCACACGU
[reply] 7.31
